- System: cool season plant species
- run.description: B2 Post-emergence efficacy Test 2, cool season plant species
- Format: in vivo
- cond: KCHSC, 15 g/Ha, 15 days after application, 0=no damage, 100=total kill
Each record here notes measured Herbicidal activity (0-100 scale) KCHSC.
In your answer, state the number alone without any accompanying words.

As a guide, the following entries are already answered.
{"smiles.str": "Cc1nn(C)c(=O)c(-c2c(F)ccc(Cl)c2CCc2ccc(F)cc2)c1OC(=O)C(C)C", "value.type": "Herbicidal activity (0-100 scale) KCHSC", "observed.value": 0}
{"smiles.str": "Cc1nn(C)c(=O)c(-c2c(F)ccc(Cl)c2CCc2ccc(Cl)cc2)c1OC(=O)C(C)C", "value.type": "Herbicidal activity (0-100 scale) KCHSC", "observed.value": 10}
{"smiles.str": "Cc1nn(C)c(=O)c(-c2c(F)ccc(Cl)c2CCc2ccc(C#N)cc2)c1O", "value.type": "Herbicidal activity (0-100 scale) KCHSC", "observed.value": 0}
{"smiles.str": "Cc1nn(C)c(=O)c(-c2c(F)ccc(Cl)c2CCc2ccccc2C(F)(F)F)c1O", "value.type": "Herbicidal activity (0-100 scale) KCHSC", "observed.value": 0}

Please turn your attention to the following entry.
## Task Given the entry Cc1nn(C)c(=O)c(-c2c(F)ccc(Cl)c2CCc2ccc(F)cc2)c1O , report its measured Herbicidal activity (0-100 scale) KCHSC.
## Result 0

---

Each record here notes measured Herbicidal activity (0-100 scale) TRZAW.
- Tested on: cool season plant species
- run.description: B2 Post-emergence efficacy Test 2, cool season plant species
- Type: in vivo
- cond: TRZAW, 60 g/Ha, 15 days after application, 0=no damage, 100=total kill
- Protocol: Seeds of a variety of test species (see Table B1) were sown in standard soil in pots. […] Herbicidal activity was evaluated 15 days after application on a 0-100 scale. […]
In your answer, state the number alone without any accompanying words.

## Task Given the entry Cc1nn(C)c(=O)c(-c2c(F)ccc(Cl)c2CCc2ccccc2C(F)(F)F)c1O [Compound 1.066] , report its measured Herbicidal activity (0-100 scale) TRZAW.
## Result 40

## Task Given the entry Cc1nn(C)c(=O)c(-c2c(F)ccc(Cl)c2CCc2ccc(C#N)cc2)c1O [Compound 1.024] , report its measured Herbicidal activity (0-100 scale) TRZAW.
## Result 20

## Task Given the entry Cc1nn(C)c(=O)c(-c2c(F)ccc(Cl)c2CCc2ccc(Cl)cc2)c1OC(=O)C(C)C [Compound 1.089] , report its measured Herbicidal activity (0-100 scale) TRZAW.
## Result 20

## Task Given the entry Cc1nn(C)c(=O)c(-c2c(F)ccc(Cl)c2CCc2ccc(F)cc2)c1O [Compound 1.048] , report its measured Herbicidal activity (0-100 scale) TRZAW.
## Result 20

## Task Given the entry Cc1nn(C)c(=O)c(-c2c(F)ccc(Cl)c2CCc2ccc(F)cc2)c1OC(=O)C(C)C [Compound 1.125] , report its measured Herbicidal activity (0-100 scale) TRZAW.
## Result 10

---

- Tested on: warm season plant species
- run.description: B2 Post-emergence efficacy Test 2, warm season plant species
- Format: in vivo
- cond: Panicum miliaceum, 30 g/Ha, 15 days after application, 0-100 scale, 0=no damage, 100=total kill
- Experimental: Seeds of a variety of test species (see Table B1) were sown in standard soil in pots. […] Herbicidal activity was evaluated 15 days after application on a 0-100 scale. […]
value.type: Herbicidal activity, PANMI
In your answer, state the number alone without any accompanying words.

As a guide, the following entries are already answered.
{"smiles.str": "Cc1nn(C)c(=O)c(-c2c(F)ccc(Cl)c2CCc2ccc(F)cc2)c1OC(=O)C(C)C", "observed.value": 30}
{"smiles.str": "Cc1nn(C)c(=O)c(-c2c(F)ccc(Cl)c2CCc2ccccc2C(F)(F)F)c1O", "observed.value": 50}
{"smiles.str": "Cc1nn(C)c(=O)c(-c2c(F)ccc(Cl)c2CCc2ccc(F)cc2)c1O", "observed.value": 20}
{"smiles.str": "Cc1nn(C)c(=O)c(-c2c(F)ccc(Cl)c2CCc2ccc(C#N)cc2)c1O", "observed.value": 70}

Please turn your attention to the following entry.
## Task Given the entry Cc1nn(C)c(=O)c(-c2c(F)ccc(Cl)c2CCc2ccc(Cl)cc2)c1OC(=O)C(C)C , report its measured Herbicidal activity, PANMI.
## Result 20

Data credit: patent US12162840B2
